Cited source for all entries: PubChem BioAssay

Biological target: Alpha-2C adrenergic receptor (Homo sapiens) (UniProt P18825)
Sequence (P18825 whole entry, looked up): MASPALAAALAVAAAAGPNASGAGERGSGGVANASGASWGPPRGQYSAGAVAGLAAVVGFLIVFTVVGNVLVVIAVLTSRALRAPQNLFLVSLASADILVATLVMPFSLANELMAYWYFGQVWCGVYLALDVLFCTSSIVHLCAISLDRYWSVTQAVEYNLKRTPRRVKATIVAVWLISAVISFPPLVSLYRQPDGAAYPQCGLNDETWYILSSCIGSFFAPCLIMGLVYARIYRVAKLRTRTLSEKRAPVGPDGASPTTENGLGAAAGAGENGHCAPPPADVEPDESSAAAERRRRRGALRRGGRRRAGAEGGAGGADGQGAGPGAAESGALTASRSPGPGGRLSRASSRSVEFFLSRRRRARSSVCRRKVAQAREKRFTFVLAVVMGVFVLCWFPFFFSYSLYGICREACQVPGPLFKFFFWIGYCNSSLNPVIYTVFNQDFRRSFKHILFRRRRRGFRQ
Test: modulators of alpha2C/GIRK thallium flux, primary screen, cell-based, HEK293 alpha2C/GIRK1/2 (AID 624);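 note: slope of fluorescence ratio to pre-addition baseline per second over 15 to 24 s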
Conditions: thallium flux BTC fluorescence, at 10 µM, actives lie on both sides
Assign classes using reported slope values and the ranges 0 (below 0.005), 1 (0.005 to below 0.006), 2 (0.006 or more), please.

Record excerpt, results attached:
Molecule: CCCCOc1ccc(C(=O)Nc2ccc(N3CCN(C(C)=O)CC3)cc2)cc1
Cat: 2
//
Molecule: O=C(C1=C(O)C(=O)N(CCCN2CCOCC2)C1c1ccccn1)c1cccs1 (stereo not drawn)
Cat: 2

State the band of CN(C)CCCN1C(=O)C(O)=C(C(=O)c2cc3ccccc3o2)C1c1ccccc1 (stereo not drawn)
1

Quick check: band for CC1(C)Cc2c(C#N)c(SCC(=O)c3ccccc3)nc(N3CCCC3)c2CO1
2

Tag the class for COc1ccc2oc(=O)c(-c3nc(C)cs3)cc2c1
1

Bin? CSc1nnc2n(C3CCCCC3)c(=O)c3c4c(sc3n12)CCCC4
1

Assign a category based on measured slope for COc1ccc2c(c1OC)C(=O)O[C@@H]2[C@H]1c2c(cc3c(c2OC)OCO3)CCN1C and give only the class name.
1

Please report the category associated with Cc1nccn1-c1cc(C(C)C)c(C#N)c2nc3ccccc3n12 , nothing else.
2

Sort CCC1(C)Cc2c(sc3nc4n(c(=O)c23)CCS4)CO1 (stereo not drawn) into one of the categories.
1

Lab log: CCCSC1=C(C#N)C(c2ccc(OC)cc2)C2=C(CC(C)(C)CC2=O)N1 (stereo not drawn) — assign slope category
1

For the record O=C(O)c1cccnc1Nc1cccc(C(F)(F)F)c1 , report the class its slope corresponds to.
1

Bin this entry: N#CC12CCCCC1CC1CCCCC1(C#N)N2Cc1ccccn1 (stereo not drawn)
0

Into which bin does this molecule go? CC(=O)Nc1ccccc1O
0

// return the class label for CC(C)Cc1[nH]c(=O)c(C#N)c2c1CCCC2
2

Band of N=c1c(C(=O)NCc2ccccc2)cc2c(=O)n3ccccc3nc2n1Cc1ccco1 ?
0

Class label required: CCOC(=O)N1CCN(/C=C(\C#N)c2nc3ccccc3s2)CC1
2

Form: Item = Cn1cc(NC(=O)c2cc(NC(=O)c3cc(NC=O)cn3C)cn2C)cc1C(=O)NCCC(=N)N ; Class = ?
1

Dear colleague, I would appreciate it if you could identify the bin for Cc1cc(C)c(C#N)c(SCC(=O)NC2CC2)n1 and reply at your convenience.
1
